Reference for the values: PubChem BioAssay (NCI)

# key: entry, value: TGI
- Test system: SF-539 CNS
- TEST_NAME: NCI tumour cell line growth inhibition, 48 h

Reference set (2 entries):
- COMPOUND: "CC1(C)N=C(N)N=C(N)N1c1ccc(CCCC(=O)Nc2ccc(S(=O)(=O)F)cc2)cc1"
  TGI: "> 100 µM"
- COMPOUND: "C=C1OC2OC(C)C(NC(=O)OCC(Cl)(Cl)Cl)C(OC(C)=O)C2O1 (stereo not drawn)"
  TGI: "> 100 µM"

Now consider the entry below.
Request body: readout TGI, system SF-539 CNS, query O=C(/C=C/c1ccc(OCc2ccccc2)cc1)NCc1ccc(C(=O)NCCc2ccccc2)cc1 . Return the value.
> 100 µM
